The following molecules are listed with their measured pIC50 values.
EXPERIMENTAL TARGET: IGF-1R (Homo sapiens)
Construct: expressed in transfected cells
METHOD: Example B-1: IGF-1R Assay (PC3 cells stimulated with IGF1, AlphaLISA on cell lysates)
Type: cell-based
PROTOCOL CONDITIONS: compound two hours, IGF1 200 ng/mL for 30 min, read-out: IC50, Biological Activity against IGF-1R (Table B1)
pIC50: −log10 of the molar value.

{"MOLECULE": "CC1(C)C(=O)N(c2ccc(SC(F)(F)F)cc2)C(=O)N1Cc1ccnc(NC(=O)c2cccnc2)c1", "READING": "≥ 6.30"}

q: Suppose we examine the molecule CC1(C)C(=O)N(c2ccc(C3(C(F)(F)F)CC3)cc2)C(=O)N1Cc1ccnc(NC2CC2)c1 ; what pIC50 value has been reported?
a: ≥ 6.30

q: Suppose we examine the molecule CC1(C)C(=O)N(c2ccc(C(F)(F)F)cc2)C(=O)N1Cc1ccnc(N)c1 ; what pIC50 value has been reported?
a: 5.00 to 5.70

q: Suppose we examine the molecule CC1(C)C(=O)N(c2ccc(S(=O)(=O)C(F)(F)F)cc2)C(=O)N1Cc1ccnc(NC2CCOCC2)c1 ; what pIC50 value has been reported?
a: ≥ 6.30

q: Suppose we examine the molecule CC(C)Nc1cc(CN2C(=O)N(c3ccc4c(c3)N(C)CC43CCC3)C(=O)C2(C)C)ccn1 ; what pIC50 value has been reported?
a: ≥ 6.30

q: Suppose we examine the molecule CC1(C)C(=O)N(c2ccc(C3CCCCC3)cc2)C(=O)N1Cc1ccnc(N)c1 ; what pIC50 value has been reported?
a: 5.70 to 6.30

q: Suppose we examine the molecule CC1(C)C(=O)N(c2ccc(SC(F)(F)F)cc2)C(=O)N1Cc1ccnc(NC(=O)C2NCC23CCCCC3)c1 (centres unmarked) ; what pIC50 value has been reported?
a: 5.00 to 5.70

q: Suppose we examine the molecule CC1COCCC1Nc1cc(CN2C(=O)N(c3ccc(C4(C(F)(F)F)CC4)cc3)C(=O)C2(C)C)ccn1 (centres unmarked) ; what pIC50 value has been reported?
a: ≥ 6.30

* * *

EXPERIMENTAL TARGET: IGF-1R (Homo sapiens, UniProt P08069)
Construct: expressed in transfected cells
Sequence (P08069 31-1367): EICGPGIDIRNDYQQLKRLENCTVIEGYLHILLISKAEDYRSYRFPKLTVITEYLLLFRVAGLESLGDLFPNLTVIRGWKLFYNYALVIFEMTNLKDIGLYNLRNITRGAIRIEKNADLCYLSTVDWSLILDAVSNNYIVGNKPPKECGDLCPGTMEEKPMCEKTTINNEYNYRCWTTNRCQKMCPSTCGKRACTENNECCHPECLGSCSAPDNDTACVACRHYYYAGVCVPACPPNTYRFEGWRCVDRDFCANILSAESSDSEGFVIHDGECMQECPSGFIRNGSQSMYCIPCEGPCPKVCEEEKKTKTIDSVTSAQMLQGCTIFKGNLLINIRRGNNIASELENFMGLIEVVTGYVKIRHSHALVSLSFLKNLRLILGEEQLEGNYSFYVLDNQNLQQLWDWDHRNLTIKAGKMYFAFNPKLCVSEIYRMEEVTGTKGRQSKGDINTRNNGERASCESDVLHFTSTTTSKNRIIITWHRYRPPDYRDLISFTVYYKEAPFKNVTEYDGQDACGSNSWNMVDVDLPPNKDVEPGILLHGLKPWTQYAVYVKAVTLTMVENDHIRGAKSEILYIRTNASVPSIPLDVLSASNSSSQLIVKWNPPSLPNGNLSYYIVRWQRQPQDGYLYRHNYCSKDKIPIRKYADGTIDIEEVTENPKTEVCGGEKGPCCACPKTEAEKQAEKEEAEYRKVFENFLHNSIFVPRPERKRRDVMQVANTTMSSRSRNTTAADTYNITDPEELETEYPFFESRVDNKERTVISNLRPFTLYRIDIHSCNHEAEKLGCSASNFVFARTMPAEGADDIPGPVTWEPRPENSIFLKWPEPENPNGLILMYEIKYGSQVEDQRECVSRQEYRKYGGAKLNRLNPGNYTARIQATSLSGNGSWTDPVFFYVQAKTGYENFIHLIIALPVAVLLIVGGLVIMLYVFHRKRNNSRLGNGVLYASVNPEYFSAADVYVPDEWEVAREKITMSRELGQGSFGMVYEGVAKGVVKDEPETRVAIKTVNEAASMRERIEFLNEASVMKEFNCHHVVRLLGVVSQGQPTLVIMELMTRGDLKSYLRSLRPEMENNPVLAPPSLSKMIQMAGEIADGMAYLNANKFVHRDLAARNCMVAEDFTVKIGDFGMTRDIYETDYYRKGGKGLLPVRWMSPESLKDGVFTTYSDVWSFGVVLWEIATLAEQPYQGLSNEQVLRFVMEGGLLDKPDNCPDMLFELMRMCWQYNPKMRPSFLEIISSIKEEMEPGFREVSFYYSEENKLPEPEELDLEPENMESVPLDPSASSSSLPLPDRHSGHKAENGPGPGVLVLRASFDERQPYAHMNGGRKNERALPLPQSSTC
METHOD: Example B-1: IGF-1R Assay (PC3 cells stimulated with IGF1, AlphaLISA on cell lysates)
Format: cell-based
PROTOCOL CONDITIONS: compound two hours, IGF1 200 ng/mL for 30 min, read-out: IC50, Biological Activity against IGF-1R (Table B1)
pIC50: −log10 of the molar value.
The following compounds are listed with their measured pIC50 values.

// below: answered compounds
{"SMILES INPUT": "CC(C)(C#N)Nc1cc(CN2C(=O)N(c3ccc(C4(C(F)(F)F)CC4)cc3)C(=O)C2(C)C)ccn1", "EXPERIMENTAL ENDPOINT": "pIC50", "READING": "≥ 6.30"}
{"SMILES INPUT": "CC(C)Nc1cc(CN2C(=O)N(c3ccc(C4(C#N)CC(F)(F)C4)cc3)C(=O)C2(C)C)ccn1", "EXPERIMENTAL ENDPOINT": "pIC50", "READING": "5.70 to 6.30"}

Please examine the following record next.
q: Suppose we examine the compound Cc1ccncc1Nc1cc(CN2C(=O)N(c3ccc(SC(F)(F)F)cc3)C(=O)C2(C)C)ccn1 ; what pIC50 value has been reported?
a: ≥ 6.30
